Assign pEC50 to each entry below.
TESTED_SYSTEM: T1, Human LIGHT stably expressed on EL4 cells (EL4-LIGHT) (human, UniProt O43557 1-240)
T1 construct: whole, on cells; also called membrane LIGHT
T1 sequence (O43557 whole entry): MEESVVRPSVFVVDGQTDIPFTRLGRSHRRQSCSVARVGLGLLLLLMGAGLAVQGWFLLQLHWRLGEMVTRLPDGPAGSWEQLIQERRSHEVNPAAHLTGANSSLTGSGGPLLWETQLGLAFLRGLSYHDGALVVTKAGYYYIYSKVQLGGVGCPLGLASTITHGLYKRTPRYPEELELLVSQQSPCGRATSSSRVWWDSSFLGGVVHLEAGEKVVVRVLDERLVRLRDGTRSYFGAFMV
EXPERIMENT_DESCRIPTION: flow cytometry, EL4-LIGHT cells
For clarity, pEC50 is expressed as the negative log10 of concentration in mol/L.

## Input Data request, read-out pEC50, for 2E08 chimeric IgG4 mAb (antibody, V domains shown, Chimeric human IgG4 (S-to-P, L-to-E) with human CL, as m1; also called Parental 2E08) VH: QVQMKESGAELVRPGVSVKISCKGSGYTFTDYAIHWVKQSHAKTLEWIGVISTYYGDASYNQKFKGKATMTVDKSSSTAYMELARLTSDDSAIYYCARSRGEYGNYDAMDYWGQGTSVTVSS VL: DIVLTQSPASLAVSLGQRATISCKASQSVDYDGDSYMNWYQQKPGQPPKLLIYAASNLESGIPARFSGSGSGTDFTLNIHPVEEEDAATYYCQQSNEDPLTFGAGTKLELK
## Output 8.56

## Input Would you mind doing 3B04 chimeric IgG4 mAb (antibody, V domains shown, also called Parental 3B04) VH: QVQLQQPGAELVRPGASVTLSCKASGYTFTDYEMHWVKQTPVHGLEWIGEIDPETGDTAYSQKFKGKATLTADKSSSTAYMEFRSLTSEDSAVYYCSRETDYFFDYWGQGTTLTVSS VL: DIQMTQTPASLSASVGETVTITCGASENIYGALNWYQRKQGKSPQLLIYGATNLADGMSSRFSGSGSGRQYSLKISSLHPDDFATYYCQNVLTTPWTFGGGTKLEIK as well?
## Output 10.02

## Input Next up: 3C10 chimeric IgG4 mAb (antibody, V domains shown, Chimeric human IgG4 (S-to-P, L-to-E) with human CL, as m1; also called Parental 3C10) VH: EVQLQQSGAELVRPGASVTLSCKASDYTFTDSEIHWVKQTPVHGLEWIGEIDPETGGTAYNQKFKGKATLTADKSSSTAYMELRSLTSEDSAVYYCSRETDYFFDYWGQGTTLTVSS VL: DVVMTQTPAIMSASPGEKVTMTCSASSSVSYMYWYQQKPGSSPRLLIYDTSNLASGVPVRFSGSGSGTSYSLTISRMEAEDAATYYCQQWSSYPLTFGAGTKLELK
## Output 9.93

## Input # repeat for 3E09 chimeric IgG4 mAb (antibody, V domains shown, Chimeric human IgG4 (S-to-P, L-to-E) with human CL, as m1; also called Parental 3E09) VH: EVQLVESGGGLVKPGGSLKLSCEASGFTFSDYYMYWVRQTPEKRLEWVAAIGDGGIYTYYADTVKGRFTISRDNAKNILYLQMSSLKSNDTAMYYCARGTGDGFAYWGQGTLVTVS VL: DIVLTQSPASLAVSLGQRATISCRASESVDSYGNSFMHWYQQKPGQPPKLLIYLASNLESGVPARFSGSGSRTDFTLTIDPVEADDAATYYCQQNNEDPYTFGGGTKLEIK
## Output 7.98

All values here come from patent US20210284747A1.
